assay: ATG_Oct_MLP_CIS: Attagene CIS-FACTORIAL HepG2 Assay for human Octamer-Binding Transcription Factor (Oct) (AID 2282993); settings: HepG2 Attagene cis-factorial Oct reporter, mRNA; actives raise or lower the signal
Activity calls are given as the source filed them. Rule for the calls: active = hit-call score of the fitted dose curve at least 0.9, where 1 is the maximum; inactive = score below 0.9.
READOUT_KIND: outcome

molecule=NC(=O)c1ccc(N)cc1 readout_kind=outcome value_measured=inactive
molecule="CC(C)CC(=O)CC(C)CC(C)C (centres undefined)" readout_kind=outcome value_measured=inactive
molecule="CCC(C)NC(N)=O (centres undefined)" readout_kind=outcome value_measured=inactive
molecule=COC(=O)CCSCCC(=O)OC readout_kind=outcome value_measured=inactive
molecule=CCOC(=O)CC(=O)OCC readout_kind=outcome value_measured=inactive

Form field: reported outcome of COC(=O)c1ccccc1
inactive

Form field: reported outcome of CCCOCCC
inactive

Form field: reported outcome of [O-][n+]1ccc(Cl)cc1
inactive

Form field: reported outcome of CC1=CCCC(C)(C)C12CCC(C)O2 (centres undefined)
inactive
